Residues, ends and D or L forms follow the SMILES beside them. *: point of attachment. DOTA = O=C(O)CN1CCN(CC(=O)O)CCN(CC(=O)*)CCN(CC(=O)O)CC1; PEG5 = NCCOCCOCCOCCOCCOCCC(=O)O
Readout Name: intact radiopeptide after 6 h in human serum

{"columns": ["Molecule", "Value Reported"],
 "data": [
  ["CC(C)[C@H](NC(=O)[C@H](C)NC(=O)[C@@H](NC(=O)[C@H](CC(N)=O)NC(=O)[C@@H](NC(=O)[C@H](CC(=O)O)NC(=O)[C@H](CCC(N)=O)NC(=O)CN1CCN(CC(=O)O)CCN(CC(=O)O)CCN(CC(=O)O)CC1)C(C)C)[C@@H](C)O)C(=O)N[C@@H](C)C(=O)N[C@@H](Cc1c[nH]c2ccccc12)C(N)=O ({DOTA}-QDVNTAVAW-NH2)", "> 95%"],
  ["CC(C)[C@H](NC(=O)[C@H](C)NC(=O)[C@@H](NC(=O)[C@H](CC(N)=O)NC(=O)[C@@H](NC(=O)[C@H](CC(=O)O)NC(=O)[C@H](CCC(N)=O)NC(=O)CCOCCOCCOCCOCCOCCNC(=O)CN1CCN(CC(=O)O)CCN(CC(=O)O)CCN(CC(=O)O)CC1)C(C)C)[C@@H](C)O)C(=O)N[C@@H](C)C(=O)N[C@@H](Cc1c[nH]c2ccccc12)C(N)=O [[^177Lu]DOTA-PEG4-A9, metal not drawn] ({DOTA-PEG5}-QDVNTAVAW-NH2)", "> 95%"]
]}

###

This listing pairs compounds with measured tissue to tissue ratio at 24 h.
assay: Biodistribution in SKBR3 tumor bearing SCID mice; assay type: in vivo; conditions: female, mouse, tumor / muscle, iv, 0.5 ug, total radioactivity, 24 h p.i., i.v. tail vein, 0.5 μg, 3.7 MBq, mean ± SD, n = 3, read-out: Tumor-to-muscle ratio
Residues, ends and D or L forms follow the SMILES beside them. *: point of attachment. DOTA = O=C(O)CN1CCN(CC(=O)O)CCN(CC(=O)*)CCN(CC(=O)O)CC1; PEG5 = NCCOCCOCCOCCOCCOCCC(=O)O
Readout Name: tissue to tissue ratio at 24 h

{"columns": ["Compound", "Value Reported"],
 "data": [
  ["CC(C)[C@H](NC(=O)[C@H](C)NC(=O)[C@@H](NC(=O)[C@H](CC(N)=O)NC(=O)[C@@H](NC(=O)[C@H](CC(=O)O)NC(=O)[C@H](CCC(N)=O)NC(=O)CN1CCN(CC(=O)O)CCN(CC(=O)O)CCN(CC(=O)O)CC1)C(C)C)[C@@H](C)O)C(=O)N[C@@H](C)C(=O)N[C@@H](Cc1c[nH]c2ccccc12)C(N)=O [[^177Lu]DOTA-A9, metal not drawn] ({DOTA}-QDVNTAVAW-NH2)", 8.09],
  ["CC(C)[C@H](NC(=O)[C@H](C)NC(=O)[C@@H](NC(=O)[C@H](CC(N)=O)NC(=O)[C@@H](NC(=O)[C@H](CC(=O)O)NC(=O)[C@H](CCC(N)=O)NC(=O)CCOCCOCCOCCOCCOCCNC(=O)CN1CCN(CC(=O)O)CCN(CC(=O)O)CCN(CC(=O)O)CC1)C(C)C)[C@@H](C)O)C(=O)N[C@@H](C)C(=O)N[C@@H](Cc1c[nH]c2ccccc12)C(N)=O [[^177Lu]DOTA-PEG4-A9, metal not drawn] ({DOTA-PEG5}-QDVNTAVAW-NH2)", 13.3]
]}

###

assay: Biodistribution in SKBR3 tumor bearing SCID mice; type: in vivo; conditions: female, mouse, tumor / blood, iv, 0.5 ug, total radioactivity, 48 h p.i., i.v. tail vein, 0.5 μg, 3.7 MBq, mean ± SD, n = 3, read-out: Tumor-to-blood ratio
Residues, ends and D or L forms follow the SMILES beside them. *: point of attachment. DOTA = O=C(O)CN1CCN(CC(=O)O)CCN(CC(=O)*)CCN(CC(=O)O)CC1; PEG5 = NCCOCCOCCOCCOCCOCCC(=O)O
Readout Name: tissue to tissue ratio at 48 h

{"columns": ["Compound", "Value Reported"],
 "data": [
  ["CC(C)[C@H](NC(=O)[C@H](C)NC(=O)[C@@H](NC(=O)[C@H](CC(N)=O)NC(=O)[C@@H](NC(=O)[C@H](CC(=O)O)NC(=O)[C@H](CCC(N)=O)NC(=O)CCOCCOCCOCCOCCOCCNC(=O)CN1CCN(CC(=O)O)CCN(CC(=O)O)CCN(CC(=O)O)CC1)C(C)C)[C@@H](C)O)C(=O)N[C@@H](C)C(=O)N[C@@H](Cc1c[nH]c2ccccc12)C(N)=O [[^177Lu]DOTA-PEG4-A9, metal not drawn] ({DOTA-PEG5}-QDVNTAVAW-NH2)", 15]
]}

###

Listed compounds paired with reported tissue to tissue ratio at 48 h
Assay: Biodistribution in SKBR3 tumor bearing SCID mice
Type: in vivo
Conditions: female, mouse, tumor / muscle, iv, 0.5 ug, total radioactivity, 48 h p.i., i.v. tail vein, 0.5 μg, 3.7 MBq, mean ± SD, n = 3, read-out: Tumor-to-muscle ratio
Method: Biodistribution studies of peptide tracers, [^177Lu]DOTA-A9 and [^177Lu]DOTA-PEG4-A9 were carried out in female SCID mice bearing human breast carcinoma, SKBR3 tumor xenografts. […] The radioactivity associated with each tissue was counted in a NaI (Tl) flat geometry detector and expressed as percentage injected dose per gram of tissue [% ID/g, mean ± standard deviation, n = 3/radiotracer]. […]
Residues, ends and D or L forms follow the SMILES beside them. *: point of attachment. DOTA = O=C(O)CN1CCN(CC(=O)O)CCN(CC(=O)*)CCN(CC(=O)O)CC1; PEG5 = NCCOCCOCCOCCOCCOCCC(=O)O
Readout Name: tissue to tissue ratio at 48 h

{"columns": ["Compound", "Readout Name", "Value Reported"],
 "data": [
  ["CC(C)[C@H](NC(=O)[C@H](C)NC(=O)[C@@H](NC(=O)[C@H](CC(N)=O)NC(=O)[C@@H](NC(=O)[C@H](CC(=O)O)NC(=O)[C@H](CCC(N)=O)NC(=O)CCOCCOCCOCCOCCOCCNC(=O)CN1CCN(CC(=O)O)CCN(CC(=O)O)CCN(CC(=O)O)CC1)C(C)C)[C@@H](C)O)C(=O)N[C@@H](C)C(=O)N[C@@H](Cc1c[nH]c2ccccc12)C(N)=O [[^177Lu]DOTA-PEG4-A9, metal not drawn] ({DOTA-PEG5}-QDVNTAVAW-NH2)", "tissue to tissue ratio at 48 h", 30],
  ["CC(C)[C@H](NC(=O)[C@H](C)NC(=O)[C@@H](NC(=O)[C@H](CC(N)=O)NC(=O)[C@@H](NC(=O)[C@H](CC(=O)O)NC(=O)[C@H](CCC(N)=O)NC(=O)CN1CCN(CC(=O)O)CCN(CC(=O)O)CCN(CC(=O)O)CC1)C(C)C)[C@@H](C)O)C(=O)N[C@@H](C)C(=O)N[C@@H](Cc1c[nH]c2ccccc12)C(N)=O [[^177Lu]DOTA-A9, metal not drawn] ({DOTA}-QDVNTAVAW-NH2)", "tissue to tissue ratio at 48 h", 10]
]}

###

Listed here: items and their measured tissue to tissue ratio at 3 h.
test: Biodistribution in SKBR3 tumor bearing SCID mice; format: in vivo; conditions: female, mouse, tumor / blood, iv, 0.5 ug, total radioactivity, 3 h p.i., i.v. tail vein, 0.5 μg, 3.7 MBq, mean ± SD, n = 3, read-out: Tumor-to-blood ratio
Residues, ends and D or L forms follow the SMILES beside them. *: point of attachment. DOTA = O=C(O)CN1CCN(CC(=O)O)CCN(CC(=O)*)CCN(CC(=O)O)CC1; PEG5 = NCCOCCOCCOCCOCCOCCC(=O)O
Readout Name: tissue to tissue ratio at 3 h

{"columns": ["Compound", "Value Reported"],
 "data": [
  ["CC(C)[C@H](NC(=O)[C@H](C)NC(=O)[C@@H](NC(=O)[C@H](CC(N)=O)NC(=O)[C@@H](NC(=O)[C@H](CC(=O)O)NC(=O)[C@H](CCC(N)=O)NC(=O)CCOCCOCCOCCOCCOCCNC(=O)CN1CCN(CC(=O)O)CCN(CC(=O)O)CCN(CC(=O)O)CC1)C(C)C)[C@@H](C)O)C(=O)N[C@@H](C)C(=O)N[C@@H](Cc1c[nH]c2ccccc12)C(N)=O [[^177Lu]DOTA-PEG4-A9, metal not drawn] ({DOTA-PEG5}-QDVNTAVAW-NH2)", 3.85],
  ["CC(C)[C@H](NC(=O)[C@H](C)NC(=O)[C@@H](NC(=O)[C@H](CC(N)=O)NC(=O)[C@@H](NC(=O)[C@H](CC(=O)O)NC(=O)[C@H](CCC(N)=O)NC(=O)CN1CCN(CC(=O)O)CCN(CC(=O)O)CCN(CC(=O)O)CC1)C(C)C)[C@@H](C)O)C(=O)N[C@@H](C)C(=O)N[C@@H](Cc1c[nH]c2ccccc12)C(N)=O [[^177Lu]DOTA-A9, metal not drawn] ({DOTA}-QDVNTAVAW-NH2)", 3.4]
]}
